Molecular target: D(2) dopamine receptor (Homo sapiens)
Sequence (P14416 whole entry): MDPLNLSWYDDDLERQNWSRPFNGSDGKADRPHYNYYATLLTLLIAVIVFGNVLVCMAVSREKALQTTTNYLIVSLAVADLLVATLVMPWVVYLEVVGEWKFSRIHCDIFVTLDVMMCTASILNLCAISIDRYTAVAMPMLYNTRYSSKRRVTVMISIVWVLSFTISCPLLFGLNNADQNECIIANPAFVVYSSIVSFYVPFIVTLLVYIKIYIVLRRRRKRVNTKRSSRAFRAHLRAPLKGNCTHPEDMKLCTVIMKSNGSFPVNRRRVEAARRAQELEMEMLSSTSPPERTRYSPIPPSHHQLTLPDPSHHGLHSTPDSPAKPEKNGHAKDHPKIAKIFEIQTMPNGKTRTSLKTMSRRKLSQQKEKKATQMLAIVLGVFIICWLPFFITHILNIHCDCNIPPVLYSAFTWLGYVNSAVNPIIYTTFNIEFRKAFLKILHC
Experiment: Displacement of [3H]SCH23390 from human FLAG-tagged dopamine D2 receptor expressed in HEK293 cells after 1 hr
Type: cell-based
PROPERTY: Ki (nM)
Report the value in nM with no unit label.

Item: COc1cc2c(cc1OC)[C@@H]1Cc3ccc(OC)c(OC)c3CN1CC2 [TETRAHYDROPALMATINE] | Ki: 1120

----------
Molecular target: D(1A) dopamine receptor (Homo sapiens, UniProt P21728)
Sequence (P21728 whole entry): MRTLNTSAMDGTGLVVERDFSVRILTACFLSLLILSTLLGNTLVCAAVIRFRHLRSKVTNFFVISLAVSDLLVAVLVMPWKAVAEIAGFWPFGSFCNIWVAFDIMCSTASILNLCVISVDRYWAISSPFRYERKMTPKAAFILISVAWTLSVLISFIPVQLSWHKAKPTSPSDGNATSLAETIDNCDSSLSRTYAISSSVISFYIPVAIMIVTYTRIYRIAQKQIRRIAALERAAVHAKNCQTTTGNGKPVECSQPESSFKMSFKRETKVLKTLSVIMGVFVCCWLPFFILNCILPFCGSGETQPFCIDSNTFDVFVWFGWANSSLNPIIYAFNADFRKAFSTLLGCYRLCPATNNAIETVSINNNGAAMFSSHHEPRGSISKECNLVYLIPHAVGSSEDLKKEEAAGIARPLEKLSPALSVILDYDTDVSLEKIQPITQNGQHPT
Assay: Displacement of [3H]SCH23390 from human dopamine D1 receptor after 1 hr
What pKi was measured for each of the following?
Scale: pKi equals -log10([C]), with [C] in mol/L.

Item: COc1cc2c(cc1OC)[C@@H]1Cc3ccc(O)c(OC)c3CN1CC2 | pKi: 6.97

Item: COc1c(O)ccc2c1CN1CCc3cc4c(cc3[C@@H]1C2)OCO4 | pKi: 8.19

Item: COc1ccc2c(c1OC)CN1CCc3cc4c(cc3[C@@H]1C2)OCO4 | pKi: 7.31

Item: COc1cc2c(cc1O)CCN1Cc3c(ccc(OC)c3OC)C[C@@H]21 | pKi: 6.70

The measured values listed here are drawn from ChEMBL document CHEMBL3997822.
